# Tested on: L1210 leukemia ip in BDF1 mice, survival T/C
# protocol-notes: NCI In Vivo Anticancer Drug Screen. Data for tumor model L1210 Leukemia (intraperitoneal) in B6D2F1 (BDF1) mice
# details: endpoint: mean survival time; dose: 400.0 mg/kg/injection; schedule: Q01DX001 (ip); vehicle: saline with Tween-80; higher = longer survival
Inconclusive results and toxic doses are left out.
measured-quantity: T/C

INSERT INTO results (molecule, value_reported) VALUES
  ('NC(=O)c1cn[nH]c1/N=N/N1CCCC1C(=O)O (configuration not stated)', '102 % of control'),
  ('ON=C1CCC(=NO)CC1', '103 % of control'),
  ('c1ccc(-c2nnnn2-c2ccccc2)cc1', '105 % of control'),
  ('CCCCCCCCCCCC(CCCC)CCCC', '101 % of control'),
  ('COc1c(C)c(C)c(OC)c(Br)c1C', '98 % of control'),
  ('CC(=O)OC1CSC1OC(C)=O (configuration not stated)', '98 % of control'),
  ('O=[N+]([O-])c1ccc(/C=C/c2ccccc2)c(Cl)c1', '95 % of control'),
  ('O=C(O)CC1CCCCC1NC(=O)c1ccccc1 (configuration not stated)', '95 % of control'),
  ('Nc1cc(SC(c2ccccc2)c2ccccc2)c([N+](=O)[O-])c(N)n1', '95 % of control'),
  ('OC1(c2ccccc2)C2=CC(c3ccccc3)=C(c3ccccc3)CC2C(c2ccccc2)C1c1ccccc1 (configuration not stated)', '96 % of control'),
  ('O=C(Nc1ccc(Cl)cc1[N+](=O)[O-])Oc1ccc(Cl)cc1Cc1ccccc1', '91 % of control'),
  ('c1ccc([CH2][Pb]([c]2ccccc2)([c]2ccccc2)[c]2ccccc2)cc1', '97 % of control');
